assay: yeast display, Sf9 membrane polyspecificity reagent, FACS + sequencing; frameworks hold sequencing errors
propertyLabel: polyreactivity (PSR sort gate)

sequenceString	measValue
QVQLVESGGGLVQAGGSLRLSCAASGRIFRFYAMGWSRQAPGKEREMVAVISTGGRTNYADSVKGRFTISRDNGKNTVYLQMNSLKPVDSAVYYCAAEYTNIGRYDGWNYNYWGQGTQVTVSS	high polyreactivity
QVQLVESGGRLVQAGGSLRLSCAASGSIFSKYTMGWYRQAPGKERELVAAISRAGSTYYADSVKGRFTISRDNAKNTVYLQMNSLKPEDTAVYYCNARYRGVYPLIGNRRDYYYWGQGTQVTVSS	high polyreactivity
QVQLVESGGGLVQAGGSLRLSCAASGFIFAFYDKGWYRQAPGKERELVAAISWGGSTYYADSVKGRVTISRDNAKNTVYLQMNSLKPEDTAVYYCAARLSRSYLYGYWGQGTQVTVSS	high polyreactivity
QVQLVESGAGLVQAGGSLRISCAASGITFYRNAMGWYRQAPGKERELVAAITWNGGRTYYADSVKGRFTISRDNAKNTVYLQMNSLNPEDTAVYYCAKRYGSTQSRYDFWGPGTQVTVSS	high polyreactivity
QVQLVESGGGLVQAGGSLRLSCAASGSTFVDNAMGWYRQAPGKERELVAAINSTDITNYADSVKGRFTISRDNAKNTVYLQMNSLKPEDTAVYYCAKDLLKWRKYQWYYYWGQGTQVTVSS	low polyreactivity
QVQLVESGGGLVQAGGSLRLSSAGSGSTLGFNAMGWYRQAPGKEREFVAGNSASGSSTYFADSVKGRFTISRDNAKNTVYLHINSLKTEDSAVYYFYARVRVRLGRNWSTYYYWGQGTEVTVSS	high polyreactivity
QVQLVESGGGLVQAGGSLRLSCAASGRIFIWYGMGCYRQAPGKERELVADISSTGSTNYADSVKGRFTISRDNAKNTVYLQMNSLKPEDTAVYYCAADPETPYYTTYDYDYWGQGTQVTVSS	low polyreactivity
QVKLVESGGGLVQAGGSLRLSCAASGRIFNWYAMGWYRQAPGKERELVARISSGDITSYADSVKGRFTISRDNAKNTVYLQMNSLKPEDTALYYCNDDGFFLNVSPYDYWGQGTQVTVSS	low polyreactivity
QVQLVESGGGLVQAGGSLRLSCAASGRTITFNTMGWYRQAPGKERELVAGIDRGGSTNYADSVKGRFTISRDNAKNTVYLQMNSLKPEDTAVYYCAKRWTGLGGYYYWGQGTQVTVSS	high polyreactivity
QVQLVESGGGLVQAGGSLRLSCAASGINFQRNDMGWYRQAPGKERELVANIRDGGITYADSVKGRFTISRDNAKNTVYLQMNSLKPEDTAVYYCARDDTSPGYGDQSSNAAYYYWGQGTQVTVSS	low polyreactivity
QVQLVESGGGLVQAGGSLRLSCAASGSIFLYNAMGWYRPAPGKERELVAAISKSGGSTYYADSVKGRFTISRDNAKNTVYLQMNSLKPEDTAVYYCAAGYGRRIRYGSEYDYWGQGTQVTVSS	low polyreactivity
QVQLVESGGGLVQAGGSLRLSCAASGRIFSIYAMGWYRQAPGKERELVAAISKRGGSTSYADSVKGRFTISRDNAKNTVYLQMNSLKPEDTAVYYCNARGWIPARGWDDYYWGQGTQVTVSS	high polyreactivity
QGQHAESGGGLVQAGGSLRLTCAASGFTFVYYPMGWYRQATGKERELVAAISGRGGSTYYADSVKGRFTISRDNAKNTVFLQMNSMKPEDTAVYYCAADAYESGNWEANGYWGQGTQVSVSS	low polyreactivity
QVQLVESVGGLVQAGGSRRLTSAASGRTFREYAMGWYRQAPWKERELVAAISDSGDSTYYADSVKGRFTISRDNAKNTVYLQMNSLKPEDTAVYYCAADYYDYEYDYWGQGTQVTVSS	low polyreactivity
QVQLVESGGGLVQAGGSLRLSCAASGNTFREYTMGWYRQAPGKERELVAGISGSGGRTYYADSVKGRFTISRDNAKNTVYLQMNSLKPEDTAVYYCNARWYYGIGYNYWGQGTQVSVSS	high polyreactivity
QVQLVESGGGLVQAGGSLRLSCAASGSTFFHYAMGWYRQAPGKERELVAAIDSNGGSTYYADSVKGRFTISRDNAKNTVYLQMNSLKPEDTAVYYCAADDLAEFEYDYWGQGTQVTVSS	low polyreactivity
QVQLVESGGGLVQAGGSLRLSCAASGSTFNDYVMGWYRQAPGKERELVAAISRSGGSTYYADSVKGRFTISRDNAKNTVYLQMNSLKPEDTAVYYCAAASPGPWRYDYWGQGTQVTVSS	high polyreactivity
QVQLVESGGGLVQAGGSLRLSCAASGFTFRTYAMGWYRQAPGKERELVAAISRSGGSTDYADSVKGRFTISRDTAKNTVYLQMNSLKPEHTAVYYCNAVRRAEYDYWGQGTQVTVSS	high polyreactivity
QVKLKESVGGLVQAGGSLRLSCAASGSISATGNMGWYRQAPGEERELVAAINFGSNTYYADSVKGRFTISRDNAKNTVYLQKSGLKPEDTPVYYCAVDGCYVGPYYYWGQGTQVTVSS	high polyreactivity
QVQLVESGGGLVQAGGSLRLSCAASGSIFVYVMGWYRQAPGKERELVAAISSGGSTDYADSVKGRFTISRDNAQNTVYLQMNSLKPEDTAVYYCAADTDTGYTYYYWGQGTQVTVSS	low polyreactivity
QVQLVESGGGLVQAGGSLRLSCAASGSIFTKYAMGWYRQAPGKERELVAAINARGGSTYYADSVKGRFTISRDNAKNTVYLQMNSLKPEDTAVYYCAARYGVGRADYYWGHGTQVTVSS	high polyreactivity

Hello, the source for this data is the nanobody polyreactivity screen of Harvey et al. (2022), in case you need it.
